Target: thyroxine-binding globulin (TBG) (Homo sapiens)
Construct: purchased Bio-rad Laboratories, Inc. (Veenendaal, The Netherlands)
Sequence (P05543 21-415): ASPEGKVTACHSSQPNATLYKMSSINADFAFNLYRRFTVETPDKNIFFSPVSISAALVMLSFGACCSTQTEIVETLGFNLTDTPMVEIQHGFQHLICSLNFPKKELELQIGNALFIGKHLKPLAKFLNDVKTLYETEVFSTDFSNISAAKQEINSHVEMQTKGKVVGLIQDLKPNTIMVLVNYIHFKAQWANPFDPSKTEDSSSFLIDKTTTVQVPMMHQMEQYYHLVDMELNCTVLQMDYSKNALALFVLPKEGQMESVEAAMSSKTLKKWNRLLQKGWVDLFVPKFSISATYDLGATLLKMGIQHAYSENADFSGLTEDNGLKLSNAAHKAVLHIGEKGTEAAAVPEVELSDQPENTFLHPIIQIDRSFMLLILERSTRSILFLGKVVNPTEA
Assay: Competitive TBG-binding assay with FITC-T4 (fluorescence polarization readout)
Details: 5 nM FITC-T4, 10 nM TBG, RT; theoretical model in R; average [95% CI]; read-out: TBG IC20, theoretical model
observation.type: IC20 (µM)

smiles: CC(C)(c1cc(Br)c(O)c(Br)c1)c1cc(Br)c(O)c(Br)c1
units.symbol: µM
quantitative.result: 6.42
//
smiles: Oc1cc(Cl)ccc1Oc1ccc(Cl)cc1Cl
units.symbol: µM
quantitative.result: 0.293
//
smiles: N[C@@H](Cc1cc(I)c(Oc2cc(I)c(O)c(I)c2)c(I)c1)C(=O)O
units.symbol: µM
quantitative.result: 0.0059
//
smiles: CC(C)(c1ccc(O)cc1)c1ccc(O)cc1
units.symbol: µM
quantitative.result: 35.7
